Data origin, for the record: patent US10729137B2

Percent Inhibition overview
# Test system: dollar spot, Sclerotinia homeocarpa
# assay_comment: Field study of disease control on creeping bentgrass plots (percent inhibition, Colby synergy)
# Type: in vivo
# experimental_context: four applications at 14 day intervals, rated 15 days after final application, chlorothalonil 3.1, iprodione 1.03, thiophanate methyl 1.03, tebuconazole 0.31 LBai/A where included
Give just the numeric value; % need not be written.

Consider the following illustrative entries.
# molecule, units_symbol, Percent Inhibition
rows = [
    ("N#Cc1c(Cl)c(Cl)c(Cl)c(C#N)c1Cl [Chlorothalonil]", "%", 15.8),
    ("CC(C)NC(=O)N1CC(=O)N(c2cc(Cl)cc(Cl)c2)C1=O [Iprodione]", "%", 5.8),
    ("CC(C)(C)C(O)(CCc1ccc(Cl)cc1)Cn1cncn1 (stereo not shown) [Tebuconazole]", "%", 19.3),
]

Query molecule follows.
input: Item under review: COC(=O)NC(=S)Nc1ccccc1NC(=S)NC(=O)OC [Thio methyl, Thiophanate methyl] . Reported Percent Inhibition?
output: 0

====

Turf Quality overview
# Test system: creeping bentgrass (Agrostis stolonifera)
# assay_comment: Field study, Turf Quality (TQ) rating of treated plots
# Format: in vivo
# experimental_context: ordinal scale 1-9 (8 and higher ideal, under 6 unacceptable); same plots, rates and timing; 15 days after final application

Consider the following illustrative entries.
# molecule, tested_target, Turf Quality
data = [
    ("N#Cc1c(Cl)c(Cl)c(Cl)c(C#N)c1Cl", "creeping bentgrass (Agrostis stolonifera)", 4.3),
    ("COC(=O)NC(=S)Nc1ccccc1NC(=S)NC(=O)OC [Thio methyl, Thiophanate methyl]", "creeping bentgrass (Agrostis stolonifera)", 3.3),
]

input: Please tell me: Turf Quality of CC(C)(C)C(O)(CCc1ccc(Cl)cc1)Cn1cncn1 (stereo not shown) , system creeping bentgrass (Agrostis stolonifera)?
output: 4.0

input: What about CC(C)NC(=O)N1CC(=O)N(c2cc(Cl)cc(Cl)c2)C1=O ?
output: 4.0
